# System: MILI (PIWIL2) piRISC loaded with L1MC piRNA (26 nt);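 note: 1 nM active piRISC with 0.1 nM target library at 33 °C single turnover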
# protocol.details: pre-steady-state target cleavage rate (min^-1); guide: L1MC piRNA 5'p-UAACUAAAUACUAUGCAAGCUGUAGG; MIWI and MILI are mouse PIWI proteins and EfPiwi is from a freshwater sponge; tags in brackets are library labels; higher = faster piRNA-guided slicing of the target
# assay.setup: auxiliary factor: none (no GTSF1)
Rule: pre-steady-state target cleavage rate of 0.007 or more gives TRUE; anything lower gives FALSE.

Q: Is reported pre-steady-state target cleavage rate greater than or equal to 0.007 here: `UCCUGGAUCAGCUUGCAUAGAUAUUUAGUUA`
Result: FALSE

Q: Is reported pre-steady-state target cleavage rate greater than or equal to 0.007 here: `UCCUGGAUCAGGUUGCAUAGUAUUUAGUAA`
Result: TRUE

Q: Is reported pre-steady-state target cleavage rate greater than or equal to 0.007 here: `UCCUCCUAGAGCUAGCAUAGUAUUUAGUUA`
Result: FALSE

Q: Is reported pre-steady-state target cleavage rate greater than or equal to 0.007 here: `UCCUGGAACAGCUUCGAUAGUAUUUAGUUA`
Result: FALSE

Q: Is reported pre-steady-state target cleavage rate greater than or equal to 0.007 here: `UCCUGCUACACGAUGCAUAGUAUUUAGUUA`
Result: FALSE

Q: Is reported pre-steady-state target cleavage rate greater than or equal to 0.007 here: `UCCUGGAUCAGCUUGGUUAGUAUUUAGUAA`
Result: FALSE

Q: Is reported pre-steady-state target cleavage rate greater than or equal to 0.007 here: `UCCUGGUUCAGCUUGCAUACUAUUUAGUUA`
Result: FALSE

Q: Is reported pre-steady-state target cleavage rate greater than or equal to 0.007 here: `UCCUGGAUGAGCUUGCAAUGUAUUUAGUUA`
Result: FALSE

Q: Is reported pre-steady-state target cleavage rate greater than or equal to 0.007 here: `UCCUCCUACAGCAAGCAUAGUAUUUAGUUA`
Result: TRUE

Q: Is reported pre-steady-state target cleavage rate greater than or equal to 0.007 here: `UCCUGGUGACAGCUUGCAUAGUAUUUAGUUA`
Result: TRUE

Q: Is reported pre-steady-state target cleavage rate greater than or equal to 0.007 here: `UCCUCGUACAGCUAGCAUAGUAUUUAGUUA`
Result: TRUE

Q: Is reported pre-steady-state target cleavage rate greater than or equal to 0.007 here: `UCCUCCUACUGCUUGCAUAGUAAUUAGUUA`
Result: FALSE

Q: Is reported pre-steady-state target cleavage rate greater than or equal to 0.007 here: `UCCUCCUACAGCUUGCAUAAUAUUUAGUUA`
Result: FALSE

Q: Is reported pre-steady-state target cleavage rate greater than or equal to 0.007 here: `UCCUGGUACAGCUUGCAUAGCUAUUUAGUUA`
Result: FALSE

Q: Is reported pre-steady-state target cleavage rate greater than or equal to 0.007 here: `UCCUCCUUCAGCUUGCAUUGUAUUUAGUUA`
Result: FALSE

Q: Is reported pre-steady-state target cleavage rate greater than or equal to 0.007 here: `UCCUGGAUGUCGAACGUAAGUAAUUUGUUA`
Result: FALSE

Q: Is reported pre-steady-state target cleavage rate greater than or equal to 0.007 here: `UCCUGGAUGAGCUUGCAAAGUAUUAAGUUA`
Result: FALSE

Q: Is reported pre-steady-state target cleavage rate greater than or equal to 0.007 here: `UCCUGGAUCAGCUUGCAUAGUAUGUAGUUA`
Result: FALSE

Q: Is reported pre-steady-state target cleavage rate greater than or equal to 0.007 here: `UCCUGCUACUGCUUGCAUAGUAUUUUGUUA`
Result: FALSE

Q: Is reported pre-steady-state target cleavage rate greater than or equal to 0.007 here: `UCCUCCUACAGCUUGCAUAGUAGUUAGUUA`
Result: FALSE

Q: Is reported pre-steady-state target cleavage rate greater than or equal to 0.007 here: `UCCUCCUACAGGUUGCAAAGUAUUUAGUUA`
Result: TRUE

Q: Is reported pre-steady-state target cleavage rate greater than or equal to 0.007 here: `UCCUGGAUGUGCAUGCAUACUAUUUAGUUA`
Result: FALSE

Q: Is reported pre-steady-state target cleavage rate greater than or equal to 0.007 here: `UCCUGGAUCAGCAUUGCAUAGUAUUUAGUUA`
Result: TRUE

Q: Is reported pre-steady-state target cleavage rate greater than or equal to 0.007 here: `UCCUGGAUCAGCUUGCAUACUAAUUAGUUA`
Result: FALSE

Q: Is reported pre-steady-state target cleavage rate greater than or equal to 0.007 here: `UCCUGGAUGUCGAACGUUAGUAUUUACGUUA`
Result: FALSE

Q: Is reported pre-steady-state target cleavage rate greater than or equal to 0.007 here: `UCCUGGAUGUCAUUGCAUAGUAUUUAGUUA`
Result: TRUE

Q: Is reported pre-steady-state target cleavage rate greater than or equal to 0.007 here: `UCCUGGAAUCAGCUUGCAUAGUAUUUAGUUA`
Result: TRUE

Q: Is reported pre-steady-state target cleavage rate greater than or equal to 0.007 here: `UCCUCCUUCAGCUUGCAUAGUAUUUAGAUA`
Result: FALSE

Q: Is reported pre-steady-state target cleavage rate greater than or equal to 0.007 here: `UCCUGGAUCAGCAUGCAUAGUAAUUAGUUA`
Result: FALSE

Q: Is reported pre-steady-state target cleavage rate greater than or equal to 0.007 here: `UCCUGGAUGUCCUUGCAUAGUAGUUAGUUA`
Result: FALSE

Q: Is reported pre-steady-state target cleavage rate greater than or equal to 0.007 here: `UCCUGGAUGAGCUUGCAUAGUAAUUUAGUUA`
Result: TRUE

Q: Is reported pre-steady-state target cleavage rate greater than or equal to 0.007 here: `UCCUGGUACAGGUUGCAUAGUUUUUAGUUA`
Result: TRUE

Q: Is reported pre-steady-state target cleavage rate greater than or equal to 0.007 here: `UCCUGGAUGAGCUUCCAAAGUAUUUAGUUA`
Result: FALSE

Q: Is reported pre-steady-state target cleavage rate greater than or equal to 0.007 here: `UCCUCGUACAGCUUGCAUAGUAUUUUGUUA`
Result: FALSE

Q: Is reported pre-steady-state target cleavage rate greater than or equal to 0.007 here: `UCCUGGUACAGCUUCAUAGUAUUUAGUUA`
Result: TRUE

Q: Is reported pre-steady-state target cleavage rate greater than or equal to 0.007 here: `UCCUGGUACAGCUUGCUUAGUAUAUAGUUA`
Result: TRUE

Q: Is reported pre-steady-state target cleavage rate greater than or equal to 0.007 here: `UCCUGGAACACGCUUGCAUAGUAUUUAGUUA`
Result: TRUE

Q: Is reported pre-steady-state target cleavage rate greater than or equal to 0.007 here: `UCCUCCUACACCUUGCAUAGUAUAUAGUUA`
Result: FALSE

Q: Is reported pre-steady-state target cleavage rate greater than or equal to 0.007 here: `UCCUGGUACAGGUUGCAUAGUAUUUACAAA`
Result: FALSE

Q: Is reported pre-steady-state target cleavage rate greater than or equal to 0.007 here: `UCCUGGAUGAGCUCGCAUAGUAUUUAGUUA`
Result: FALSE

Q: Is reported pre-steady-state target cleavage rate greater than or equal to 0.007 here: `UCCUGGUUCUGCUUGCAUAGUAUUUAGUUA`
Result: TRUE

Q: Is reported pre-steady-state target cleavage rate greater than or equal to 0.007 here: `UCCUGGAUCAGGUUGCAUAGUUUUUAGUUA`
Result: FALSE

Q: Is reported pre-steady-state target cleavage rate greater than or equal to 0.007 here: `UCCUGGAUGAGCUUGCAUAGUAUUGUAGUUA`
Result: FALSE

Q: Is reported pre-steady-state target cleavage rate greater than or equal to 0.007 here: `UCCUCUCUACAGCUUGCAUAGUAUUUAGUUA`
Result: TRUE

Q: Is reported pre-steady-state target cleavage rate greater than or equal to 0.007 here: `UCCUGGAUGUCGUUGCAAAGUAUUUAGUUA`
Result: TRUE

Q: Is reported pre-steady-state target cleavage rate greater than or equal to 0.007 here: `UCCUCCUAUCAGCUUGCAUAGUAUUUAGUUA`
Result: TRUE

Q: Is reported pre-steady-state target cleavage rate greater than or equal to 0.007 here: `UCCUGGAUCUGCUUGCAUAGUAUAUAGUUA`
Result: FALSE

Q: Is reported pre-steady-state target cleavage rate greater than or equal to 0.007 here: `UCCUGGAACAACUUGCAUAGUAUUUAGUUA`
Result: TRUE

Q: Is reported pre-steady-state target cleavage rate greater than or equal to 0.007 here: `UCCUGGAUGAGCUUGCAUAGUAUUUAAGUUA`
Result: TRUE

Q: Is reported pre-steady-state target cleavage rate greater than or equal to 0.007 here: `UCCUGGAACAGCCUUGCAUAGUAUUUAGUUA`
Result: TRUE
